assay: gradient 5% acetonitrile 3 min, to 50% in 2 min, to 85% in 15 min, held 3 min, 100 µL/min; settings: column: Zorbax Extend-C18 2.1 x 50 mm; eluents: water / acetonitrile, 0.1% formic acid
measure: RP-LC retention time (s)

[[record]]
compound = "CCn1cc(C(=O)NC2CCN(c3ccc(=O)n(CCOc4ccccc4)n3)C2)cn1 (stereo not given)"
reading = 692

[[record]]
compound = "Cc1ccc(N2CCC(NC(=O)c3ccc(N(C)C)cc3)C2=O)cc1 (stereo not given)"
reading = 810

[[record]]
compound = "O=C(NCc1cccc(Br)c1)c1ccc2c(c1)ncn2CCN1CCCC1"
reading = 599

[[record]]
compound = "COCCOC(=O)C1=C(C)NC2=C(C(=O)C(C(=O)OC)C(C)C2)C1c1cccc(F)c1 (stereo not given)"
reading = 832

[[record]]
compound = "O=C(Nc1nnc(SCc2cn3ccccc3n2)s1)C1(c2cccs2)CCCC1"
reading = 611


----------
assay: gradient 5% acetonitrile 3 min, to 50% in 2 min, to 85% in 15 min, held 3 min, 100 µL/min; conditions: column: Zorbax Extend-C18 2.1 x 50 mm; eluents: water / acetonitrile, 0.1% formic acid
// boundary case: RP-LC retention time equal to 800 s maps to Not fulfilled; strictly smaller maps to Fulfilled

[[record]]
compound = "COc1ccc(N2CC(c3nc(-c4ccc(C)cc4)no3)CC2=O)c(OC)c1 (stereo not given)"
classification = "Not fulfilled"

[[record]]
compound = "CCC(=O)c1ccc(OCC(O)CN(CC)Cc2ccccc2)cc1 (stereo not given)"
classification = "Fulfilled"

[[record]]
compound = "Cc1cccc(NC(=O)COc2ccc(-c3cnc4ccccc4n3)cc2)n1"
classification = "Not fulfilled"

[[record]]
compound = "COc1ccc(S(=O)(=O)N2CCCC(C)(C(=O)NCc3ccccc3)C2)cc1 (stereo not given)"
classification = "Not fulfilled"

[[record]]
compound = "O=C(N[C@H]1C[C@@H]2C[C@H]1N(C(=O)c1ccccc1Cl)C2)c1cccs1"
classification = "Fulfilled"

[[record]]
compound = "CC(=O)N1CCc2cc(C(=O)N(C)C)ccc21"
classification = "Fulfilled"

[[record]]
compound = "COc1ccc(NC(=O)Cn2nc3n(c2=O)CCCCC3)cc1"
classification = "Fulfilled"

[[record]]
compound = "O=C1CCC(NC(=O)c2ccccc2)C(=O)N1 (stereo not given)"
classification = "Fulfilled"

[[record]]
compound = "O=C(NCc1ccc(Cl)cc1)C1CCCN(c2cnc3nccnc3c2)C1 (stereo not given)"
classification = "Fulfilled"

[[record]]
compound = "Cc1ccc(CNS(=O)(=O)c2cn(CC(C)C)c3ncccc23)cc1"
classification = "Not fulfilled"

[[record]]
compound = "Cc1ccc(CNC(=O)c2c(C)sc3ccn(CC(C)C)c(=O)c23)o1"
classification = "Fulfilled"

[[record]]
compound = "CCc1cc(=O)n(CC(=O)Nc2cccc(SC)c2)c(N2CCOCC2)n1"
classification = "Not fulfilled"

[[record]]
compound = "CCCCn1c(=O)c2ccccc2n(Cc2nc(-c3ccccc3OC)no2)c1=O"
classification = "Not fulfilled"

[[record]]
compound = "COC(=O)CC1=CC(SCC(=O)N2CCC(C)CC2)=Nc2ccccc2N1"
classification = "Not fulfilled"

[[record]]
compound = "CCOC(=O)c1ccccc1NC(=O)CSc1nnc2c3cc(-c4ccc(F)cc4)nn3ccn12"
classification = "Not fulfilled"

[[record]]
compound = "CN1CCCn2cc(S(=O)(=O)Nc3ccc4c(c3)OCCO4)cc2C1=O"
classification = "Fulfilled"

[[record]]
compound = "O=S(=O)(c1cccc(Br)c1)N1CCc2nc(-c3ccccc3)ncc2C1"
classification = "Not fulfilled"

[[record]]
compound = "CC(C)NC(=O)c1ccccc1OCC1CCCN(C2CCC2)C1 (stereo not given)"
classification = "Fulfilled"

[[record]]
compound = "COc1cc(C)c(Br)cc1S(=O)(=O)N1CCC(C(N)=O)CC1"
classification = "Fulfilled"

[[record]]
compound = "CC(C)n1c(=O)sc2cc(S(=O)(=O)N3CCC(C(=O)N4CCOCC4)CC3)ccc21"
classification = "Fulfilled"


All values here come from the METLIN SMRT retention time set (Domingo-Almenara et al. 2019).
